# Test system: MOLT-4 leukemia
# PROTOCOL_NOTES: NCI tumour cell line growth inhibition, 384-well format; in the data active = GI50 below about 0.43 µM; inactive = the rest
Allowed answers: y = active, n = inactive

Lookup: Per the records of this test, what outcome belongs to CC(C)[C@H](O)C(=O)N[C@@H](C)C(=O)N[C@@H]1C(=O)N(C)CCc2ccccc21 ?
Found: n

Lookup: Also COc1cc2c(cc1O)CCN[C@]21CS[C@@H]2c3c(OC(C)=O)c(C)c4c(c3[C@H](COC1=O)N1[C@@H]2[C@H]2c3c(cc(C)c(OC)c3O)C[C@@H]([C@@H]1O)N2C)OCO4 ?
Found: y

Lookup: What about this molecule? COc1cc2c(Nc3cc(Cl)c(OC)c(Cl)c3)c(C#N)cnc2cc1OCCCN1CCN(C)CC1
Found: y

Lookup: Could you do the same for COc1ccc(-c2ccc3c(N4CCOC[C@@H]4C)nc(N4CCOC[C@@H]4C)nc3n2)cc1CO , please?
Found: y
